PROTOCOL NOTES: In vivo pharmacokinetics in rats
Parameters: species or system rat
DETAILS: male, Sprague-Dawley, plasma; Rat, PO, 50 mg kg^-1
RESULT TYPE: Cmax (ng/mL)
# output: bare number, implied unit ng/mL

Documented Cmax of CN1CCN(Cc2ccc(NC(=O)c3cncc(C#Cc4cnc5cccnn45)c3)cc2C(F)(F)F)CC1 : 1830

###

PROTOCOL NOTES: In vivo pharmacokinetics in rats
Design: species or system rat
DETAILS: male, Sprague-Dawley, plasma; Rat, PO, 20 mg kg^-1
RESULT TYPE: CL/F (mL/min/kg)
# output: bare number, implied unit mL/min/kg

Documented CL/F of CN1CCN(Cc2ccc(NC(=O)c3cncc(C#Cc4cnc5cccnn45)c3)cc2C(F)(F)F)CC1 : 44.3
